The origin of these recorded values is ChEMBL document CHEMBL4308906.

- system.under.test: CYP1A2 (Homo sapiens)
- Sequence (P05177 whole entry): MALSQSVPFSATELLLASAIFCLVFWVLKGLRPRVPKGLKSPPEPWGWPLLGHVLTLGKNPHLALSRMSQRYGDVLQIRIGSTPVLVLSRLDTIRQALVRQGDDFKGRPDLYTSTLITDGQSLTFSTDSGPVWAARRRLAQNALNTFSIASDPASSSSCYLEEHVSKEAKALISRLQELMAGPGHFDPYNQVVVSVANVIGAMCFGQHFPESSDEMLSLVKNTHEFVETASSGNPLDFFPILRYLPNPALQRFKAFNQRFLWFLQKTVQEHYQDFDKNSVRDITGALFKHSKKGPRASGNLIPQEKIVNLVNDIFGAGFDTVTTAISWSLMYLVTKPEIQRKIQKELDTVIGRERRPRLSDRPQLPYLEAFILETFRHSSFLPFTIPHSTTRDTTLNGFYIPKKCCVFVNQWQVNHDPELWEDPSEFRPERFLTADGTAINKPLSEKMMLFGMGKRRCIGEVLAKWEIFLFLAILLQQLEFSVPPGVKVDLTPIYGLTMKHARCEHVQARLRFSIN
- method: Inhibition of human recombinant CYP1A2 using 7-ethoxyresorufin as substrate assessed as percent enzyme activity at 1 uM after 30 mins in presence of NADPH by EROD assay relative to control
- Format: ADME
- Parameters: scale not given: the % may be the effect or the level left
- run.parameters: recombinant CYP1A2, probe 7-ethoxyresorufin, read-out: Activity
reported.metric: activity at 0.5 h, 1 µM (%)
Provide only the numeric value, understood in %.

1) CN(C)C(=O)Sc1cccc(-c2cc(=O)c3ccc4ccccc4c3o2)c1    68.7
2) [N-]=[N+]=NCC1CCC(c2cc(=O)c3ccc4ccccc4c3o2)CC1 (mixture of isomers)    22.3
3) O=c1cc(-c2cccc(O)c2)oc2c1ccc1ccccc12    37.2
4) O=c1cc(C2CC=CCC2)oc2c1ccc1ccccc12 (stereo not drawn)    36.9
5) CN(C)C(=S)Oc1cccc(-c2cc(=O)c3ccc4ccccc4c3o2)c1    75.4

Return reported activity at 0.5 h, 1 µM; argument: O=c1cc([C@@H]2CCC[C@H](O)C2)oc2c1ccc1ccccc12 (relative stereo)
68.2
